B1: library; a variant is named by its letters at N, in order (parent)
chain: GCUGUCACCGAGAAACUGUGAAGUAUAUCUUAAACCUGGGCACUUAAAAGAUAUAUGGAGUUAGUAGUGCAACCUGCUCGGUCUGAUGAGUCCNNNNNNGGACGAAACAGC

- Variants of: B1
- protocolSummary: normalized RNA/DNA level with ligand (relative to sTRSVctl = 100) (log10 (% of sTRSVctl)); HEK293T; ligand: cyclic di-GMP (c-di-GMP-II aptamer); ligand concentration (+) RNA-Seq: 1 mM; higher = less ribozyme self-cleavage, higher mRNA level
- conditionNotes: reporter: mCherry (pCS4076), ligand present: yes
Documented normalized RNA/DNA level with ligand (log10) across a set of variants
Lab note: jot down the number only; don't add units.

Below are worked cases with known answers.
[[record]]
variantannotation = "GUUUUA"
recordedvalue = 1.82

[[record]]
variantannotation = "GUAUUU"
recordedvalue = 1.82

[[record]]
variantannotation = "AGGGGA"
recordedvalue = 1.59

[[record]]
variantannotation = "GGAUGC"
recordedvalue = 1.83

[[record]]
variantannotation = "ACAAAU"
recordedvalue = 1.57


Data request: For GCAUUC , what is its reported normalized RNA/DNA level with ligand (log10)?
Data returned: 1.7

Data request: For AACCAC , what is its reported normalized RNA/DNA level with ligand (log10)?
Data returned: 1.81

Source of measurements: the supplement of paper PMC6757056
